experiment: Hardness (calcium chloride) tolerance; type: physicochemical; settings: text of b163
measurement.name: Hardness tolerance (of CaCl2) (µM)
Reply numerically in µM, unit not repeated.

Problem: I have this compound here, CCCCCCCCCCCC(=O)OC(CC[S+](C)[O-])C(=O)[O-].[Na+] (stereo not shown) , and I need its recorded Hardness tolerance (of CaCl2).
Result: 5000

###

Test: Hardness (calcium chloride) tolerance
Type: physicochemical
Settings: CaCl2 added, cooled to 4° C., heated to 25° C., visual
Description: The Krafft temperature of the surfactant with the concentration at the room temperature CMC was determined by cooling the solution to 4° C. and then raising the temperature by 1° C. steps and visually inspecting its phase behavior after the solution reached thermal equilibrium. For hardness tolerance, a known amount of calcium chloride was added to the solution prior to cooling to 4° C.
measurement.name: CaCl2 Tolerance (µM)
Reply numerically in µM, unit not repeated.

Please review the following examples before continuing.
1. CCCCCCCCCCCCCCCC(=O)OC(CC[S+](C)[O-])C(=O)[O-].[Na+] (stereo not shown); 100
2. CCCCCCCCCCCC(=O)[O-].[Na+] [NaL, sodium laurate, reference compound]; 0.5
3. CCCCCCCCCCCC(=O)OC(CCSC)C(=O)[O-].[Na+] (stereo not shown); 100

Proceeding to the next compound to report its CaCl2 Tolerance.
Problem: I have this compound here, CCCCCCCCCCCC(=O)OC(CC[S+](C)[O-])C(=O)[O-].[Na+] (stereo not shown) , and I need its recorded CaCl2 Tolerance.
Result: 5000
